Hey, just so you know, these numbers are from patent US8153791B2.

Experiment: Blood-Brain Barrier Penetration (concentration in plasma and brain)
Type: in vivo, Sprague Dawley rats
Conditions: male, Sprague Dawley, rat, brain, iv, 3 mg/kg, i.v. 3 mg/kg, 60 min (brain), male Sprague Dawley rats; read-out: Concentration in Brain, Mean ± SEM
parameter measured: concentration at 60 min (ng/g)
Give bare numbers, in ng/g.

Record request: concentration at 60 min value, item Nc1ncnc(Nc2ccc(OCc3ccccc3)c(Cl)c2)c1/C=N/OCCN1CCOCC1
307

###

Target: EGFR (Homo sapiens, UniProt P00533)
Construct: The intracellular portion of EGFR started at nucleotide 2189 (corresponding to amino acid 667) and ended at the termination codon
Sequence (P00533 669-1210 limits assumed): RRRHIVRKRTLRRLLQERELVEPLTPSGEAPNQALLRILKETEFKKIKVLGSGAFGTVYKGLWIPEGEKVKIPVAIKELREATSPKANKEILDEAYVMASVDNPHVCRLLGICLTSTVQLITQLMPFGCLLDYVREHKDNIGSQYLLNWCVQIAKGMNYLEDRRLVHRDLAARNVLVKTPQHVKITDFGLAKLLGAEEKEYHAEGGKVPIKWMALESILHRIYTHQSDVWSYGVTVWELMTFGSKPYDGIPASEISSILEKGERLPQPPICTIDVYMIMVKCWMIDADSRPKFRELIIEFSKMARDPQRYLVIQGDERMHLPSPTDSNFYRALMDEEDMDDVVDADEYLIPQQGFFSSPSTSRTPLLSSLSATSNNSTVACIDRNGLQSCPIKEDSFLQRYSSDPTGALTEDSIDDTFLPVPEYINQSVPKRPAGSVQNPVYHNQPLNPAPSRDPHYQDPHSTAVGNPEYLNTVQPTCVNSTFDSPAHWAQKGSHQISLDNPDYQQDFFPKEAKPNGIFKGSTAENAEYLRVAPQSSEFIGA
Assay: EGFR Kinase Assay
Assignment: determine reported IC50 for the given compounds.
Numbers only, in nM.

See these solved cases before continuing.
- compound: "CO/N=C/c1c(N)ncnc1Nc1ccc2c(c1)CCC2 [Cpd 20]"
  IC50 [nM]: 1200
- compound: "Nc1ncnc(Nc2ccc(OCc3ccccc3)c(Cl)c2)c1/C=N/OCCN1CCCCC1 [Cpd 95]"
  IC50 [nM]: 50
- compound: "CO/N=C/c1c(N)ncnc1Nc1ccc(OCc2ccccn2)c(Cl)c1 [Cpd 32]"
  IC50 [nM]: 10
- compound: "CCO/N=C/c1c(N)ncnc1N[C@H](C)c1ccccc1 [Cpd 14]"
  IC50 [nM]: 100
- compound: "CO/N=C/c1c(N)ncnc1Nc1ccc2nn(Cc3cccc(F)c3)cc2c1 [Cpd 5]"
  IC50 [nM]: 500

Okay, here is my list. What is IC50 for each of these?
1. CO/N=C/c1c(N)ncnc1Nc1ccc(OC(F)F)cc1 [Cpd 21]
2. CCO/N=C/c1c(N)ncnc1Nc1ccc2[nH]c(Cc3cccc(F)c3)nc2c1 [Cpd 58]
3. CO/N=C/c1c(N)ncnc1Nc1cccc(OCc2ccccc2)c1 [Cpd 28]
4. CO/N=C/c1c(N)ncnc1Nc1ccc(Oc2ccc(C)nc2)c(C)c1 [Cpd 29]
5. CCO/N=C/c1c(N)ncnc1Nc1ccc2c(cnn2Cc2cccc(Cl)c2)c1 [Cpd 55]
6. C[C@H](Nc1ncnc(N)c1/C=N/O)c1ccccc1 [Cpd 100]

1. 1500
2. 30
3. 900
4. 200
5. 40
6. 20

Dear reader, for each entry below, please note its IC50.
1. Nc1ncnc(Nc2ccc3c(cnn3Cc3cccc(F)c3)c2)c1/C=N/OCCOc1ccccc1 [Cpd 31]
2. N#Cc1c(N)ncnc1Nc1ccc(OCc2ccccc2)c(Cl)c1 [Cpd 118]
3. CCNc1ncnc(Nc2ccc(OCc3cccc(F)c3)c(Cl)c2)c1/C=N/OCC [Cpd 43]

[20, 30, 1400]

# batch: return IC50 for each of the 6 compounds below
1. C=CCO/N=C/c1c(N)ncnc1Nc1ccc2c(cnn2Cc2cccc(F)c2)c1 [Cpd 11]
2. Nc1ncnc(Nc2ccc(Oc3ccccc3)cc2)c1/C=N/O [Cpd 111]
3. CCO/N=C/c1c(N)ncnc1Nc1ccc(OCc2cccc(F)c2)c(Cl)c1 [Cpd 18]
4. CO/N=C/c1c(N)ncnc1Nc1ccc(Cl)cc1F [Cpd 80]
5. Nc1ncnc(Nc2ccc3c(cnn3Cc3cccc(F)c3)c2)c1/C=N/OCCCN1CCOCC1 [Cpd 87]
6. CO/N=C/c1c(N)ncnc1Nc1ccc(Oc2ccccc2)cc1 [Cpd 24]

8
100
30
300
30
90

Answer for every listed entry: what is its IC50? The entries follow.
1. CC(C)(C)O/N=C/c1c(N)ncnc1Nc1ccc2c(cnn2Cc2cccc(F)c2)c1 [Cpd 12]
2. CO/N=C/c1c(N)ncnc1Nc1ccc(Oc2cccnc2)c(C)c1 [Cpd 13]
3. CO/N=C/c1c(N)ncnc1Nc1ccc(OCc2ccccc2)cc1 [Cpd 25]
4. Nc1ncnc(Nc2ccc(OCc3ccccc3)c(Cl)c2)c1/C=N/OCCN1CCOCC1 [Cpd 78]
5. CO/N=C/c1c(N)ncnc1Nc1ccc(OCc2cccc(F)c2)c(OC)c1 [Cpd 61]
6. Nc1ncnc(Nc2ccc(OCc3cc(F)cc(F)c3)c(Cl)c2)c1/C=N/OCCN1CCOCC1 [Cpd 99]
7. CO/N=C/c1c(N)ncnc1Nc1ccc(Oc2cccnc2)c(Cl)c1 [Cpd 38]

40
200
30
20
200
70
100

Batch: IC50 for all items listed.
1. Nc1ncnc(Nc2ccc(OCc3cccc(F)c3)c(Cl)c2)c1/C=N/OCCN1CCCCC1 [Cpd 94]
2. Nc1ncnc(Nc2ccc(OCc3cccc(F)c3)c(Cl)c2)c1/C=N/OCCCO [Cpd 75]
3. Nc1ncnc(Nc2ccc(OCc3cccc(F)c3)c(Cl)c2)c1/C=N/O [Cpd 79]
4. CCO/N=C/c1c(N)ncnc1Nc1ccc2[nH]ccc2c1 [Cpd 17]
5. Nc1ncnc(Nc2ccc3c(ccn3Cc3cccc(F)c3)c2)c1/C=N/O [Cpd 88]
6. Nc1ncnc(Nc2ccc(OCc3ccccc3)c(Cl)c2)c1/C=N/O [Cpd 77]
7. Nc1ncnc(Nc2ccc(OCc3ccccc3)c(Cl)c2)c1/C=N/OCCCO [Cpd 76]
8. Nc1ncnc(Nc2ccc3c(cnn3Cc3cccc(F)c3)c2)c1/C=N\OCCCO [Cpd 69]

20
8
8
20
9
20
10
10

Fill in IC50 for each of the 3 compounds listed.
1. CN(C)CCCO/N=C/c1c(N)ncnc1Nc1ccc2c(cnn2Cc2cccc(F)c2)c1 [Cpd 70]
2. Nc1ncnc(Nc2ccc3c(cnn3Cc3cccc(F)c3)c2)c1/C=N/OCCCO [Cpd 85]
3. Nc1ncnc(Nc2ccc(OCc3ccccc3)c(Cl)c2)c1/C=N/OCCCN1CCOCC1 [Cpd 112]

1: 20; 2: 20; 3: 20

###

Assay: Blood-Brain Barrier Penetration (concentration in plasma and brain)
Format: in vivo, Sprague Dawley rats
Conditions: male, Sprague Dawley, rat, brain, po, 10 mg/kg, p.o. 10 mg/kg, 120 min (brain), second of two lines so labelled; read-out: Concentration in Brain, Mean ± SEM
parameter measured: concentration at 120 min (ng/g)
One number for each entry, in ng/g.

Dear colleague, I am looking for the recorded concentration at 120 min of the following compound: Nc1ncnc(Nc2ccc(OCc3ccccc3)c(Cl)c2)c1/C=N/OCCN1CCOCC1 [Cpd 78]
51.2

###

Target: EGFR (Homo sapiens)
Construct: The intracellular portion of EGFR started at nucleotide 2189 (corresponding to amino acid 667) and ended at the termination codon; made in house; host or cells: Sf9 insect cells (baculovirus)
Assay: EGFR Kinase Assay
Type: biochemical
Details: test concentration of 2 μM
Consider the following compounds; for each one, report its inhibition at 2 µM.
Answers are plain numbers, in %.

# annotated cases, reported inhibition at 2 µM shown
- compound: "CON=Cc1c(N)ncnc1NCc1ccc(OC)c(OC)c1"
  result value: 6
- compound: "CON=Cc1c(N)ncnc1Nc1ccc(Oc2ccccc2)nc1"
  result value: 45
- compound: "CON=Cc1c(N)ncnc1Nc1ccc(OC)cc1"
  result value: 15
- compound: "CON=Cc1c(N)ncnc1NCc1ccc(Oc2ccccc2)cc1"
  result value: 7
- compound: "CON=Cc1c(N)ncnc1Nc1ccc(N2CCOCC2)nc1"
  result value: 1

Hi team, please reply with inhibition at 2 µM for each item in this list.
1. CON=Cc1c(N)ncnc1NC1CCc2ccccc21 (stereo not shown)
2. CON=Cc1c(N)ncnc1NC1CCCc2ccccc21 (stereo not shown)

1. 26
2. 42

###

Molecular target: EGFR (Homo sapiens)
Construct: The intracellular portion of EGFR started at nucleotide 2189 (corresponding to amino acid 667) and ended at the termination codon
Assay: EGFR Kinase Assay;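 note: recombinant GST-tagged EGFR expressed in Sf9 cells, phosphorylating biotinylated polyGluTyr with γ-33P ATP on Streptavidin Flashplates, 1 h at 30 °C, scintillation counting, inhibition relative to plate maximum and minimum signals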
pIC50: −log10 of the molar value.
Threshold check on pIC50: at or above 7 gives 1 (yes), strictly below gives 0 (no).

Worked examples follow.
- cpd smiles: "CO/N=C/c1c(N)ncnc1Nc1ccc(Br)cc1F"
  category label: "0 (no)"
- cpd smiles: "CCNc1ncnc(Nc2ccc3c(cnn3Cc3cccc(F)c3)c2)c1/C=N/OCC"
  category label: "0 (no)"
- cpd smiles: "Nc1ncnc(Nc2ccc(OCc3cccc(F)c3)c(Cl)c2)c1/C=N/OCCN1CCOCC1"
  category label: "1 (yes)"
- cpd smiles: "Nc1ncnc(Nc2ccc3c(ccn3Cc3cccc(F)c3)c2)c1/C=N/OCCN1CCCCC1"
  category label: "1 (yes)"
- cpd smiles: "CCO/N=C/c1c(N)ncnc1Nc1ccc(OCc2ccccc2)c(Cl)c1"
  category label: "1 (yes)"
- cpd smiles: "Nc1ncnc(Nc2ccc(F)c(Cl)c2)c1/C=N/OCCN1CCOCC1"
  category label: "0 (no)"
- cpd smiles: "CCO/N=C/c1c(N)ncnc1Nc1ccc2c(cnn2Cc2cccc(C#N)c2)c1"
  category label: "1 (yes)"

Continue with the compound presented below.
Can CO/N=C/c1c(N)ncnc1Nc1ccc(Oc2ccccc2)c(OC)c1 be said to have pIC50 at or above 7?
1 (yes)

###

Test system: N87 gastric carcinoma cells
Experiment: N87 Human Tumor Xenograft Model
Format: in vivo, nu/nu mice
Settings: treatment groups 5-10, 100 mg/kg oral once daily for 30 days
I would appreciate it if you labelled entries Satisfied when N87 Tumor Growth Inhibition TGI is 50% or higher, otherwise Not satisfied.

As a guide, the following entries are already answered.
- molecule: "Nc1ncnc(Nc2ccc(OCc3cccc(F)c3)c(Cl)c2)c1/C=N/OCCN1CCOCC1 [Cpd 93]"
  category label: "Satisfied"
- molecule: "Nc1ncnc(Nc2ccc3c(ccn3Cc3cccc(F)c3)c2)c1/C=N/OCCN1CCOCC1 [Cpd 101]"
  category label: "Satisfied"
- molecule: "Nc1ncnc(Nc2ccc(OCc3cccc(F)c3)c(Cl)c2)c1/C=N/OCCN1CCCCC1 [Cpd 94]"
  category label: "Not satisfied"

With those in mind, consider the next molecule.
N87 Tumor Growth Inhibition TGI >= 50% for Nc1ncnc(Nc2ccc(OCc3ccccc3)c(Cl)c2)c1/C=N/OCc1ccccn1 [Cpd 114] ?
Not satisfied
